system: HOP-62 NSCLC; experiment: NCI tumour cell line growth inhibition, 48 h
Recorded TGI values for a group of molecules are listed next.
Write it as a number; the unit µM goes unstated.

{"CHEMICAL SMILES": "NCCCNCCCCN1CC1", "TGI / µM": 14.1}
{"CHEMICAL SMILES": "O=C1C(Cl)=C(Nc2cccc(C(F)(F)F)c2)C(=O)N1Cc1ccc(Cl)cc1", "TGI / µM": 17.4}
{"CHEMICAL SMILES": "O=C(CCCCC(=O)N/N=C\\c1ccccc1O)N/N=C\\c1ccccc1O", "TGI / µM": 71.8}

We now examine a further molecule.
Q) I am curious: what TGI value has been reported for Cc1cc(I)cc(CN(C)CCCN2CCN(C)CC2)c1O ?
A) 36.3

Sourced from PubChem BioAssay (NCI)
